Listed sequences paired with reported self-splicing fitness (ln)
# METHOD: self-splicing fitness, log relative to wild type (ln ratio); higher = more splicing; Tetrahymena group I intron in knt gene, E. coli kanamycin selection, DiMSum; sequences stand for … in CUCUCU…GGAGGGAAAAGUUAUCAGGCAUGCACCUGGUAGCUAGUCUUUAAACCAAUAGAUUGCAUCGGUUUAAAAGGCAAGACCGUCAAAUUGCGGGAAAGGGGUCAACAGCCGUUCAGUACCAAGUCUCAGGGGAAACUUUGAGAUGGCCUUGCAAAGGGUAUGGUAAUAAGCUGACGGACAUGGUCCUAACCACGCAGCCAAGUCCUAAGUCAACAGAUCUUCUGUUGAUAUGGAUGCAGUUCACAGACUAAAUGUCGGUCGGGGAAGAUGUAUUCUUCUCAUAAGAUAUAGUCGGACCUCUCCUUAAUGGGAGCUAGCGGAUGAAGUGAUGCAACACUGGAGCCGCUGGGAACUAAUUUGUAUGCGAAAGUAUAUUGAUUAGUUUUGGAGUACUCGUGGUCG;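 also: selection with 25 µg/mL kanamycin versus none on LB agar overnight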
# SETUP_CONDITIONS: 37 °C
// no unit string in output, number only

The reported self-splicing fitness (ln) of the sequence `CAGUAGCAAUAUUACGCGUA` was -1.64

The reported value for `UGCCAGCAAUAUUACGGGCU` in terms of self-splicing fitness (ln) is -1.61

self-splicing fitness (ln) measured on `UGAUAGCAAUAUUACGGCGG` = -0.142

Measured self-splicing fitness (ln) of `UCCUAGCAAUAUUACGGUAG` : -2.28

`CCCUAGCAAUAUUACGGCCG` has a reported self-splicing fitness (ln) of -1.62
